test system: NCI-H226 lung; experiment: NCI-60 one-dose screen, 48 h (100 = growth as untreated, 0 = no growth, -100 = all killed); conditions: 10 µM unless noted
This is part of a sample that, as a whole, favours compounds with a hit. Of some 83,000 tested, about 20% had one in any assay.
measureName: growth (%)
The reply should be a number in %, with the unit left off.

# structureString, valueUnits, growth
measured = [
    ("O=C(Nc1ccc(F)cc1)c1ccccc1", "%", 104),
    ("CCc1ccc(NC(=O)N[C@@H](Cc2cc(F)cc(F)c2)C(=O)N[C@@H]2C(=O)N3C[C@H](O)C[C@H]3C(=O)N3CCOC[C@H]3C(=O)N[C@@H](C)C(=O)N3C[C@H](C)C[C@H]3C(=O)O[C@H]2C)cc1", "%", 63.2),
    ("CCCCCN(CCCCC)CCCCCCCCN1CCCc2ccccc21", "%", 97.6),
    ("O=C(NNc1ccc(-c2ccccc2)nn1)c1ccccc1", "%", 102),
    ("COc1cc2c(c(OC)c1OC)-c1cc(I)c(O)cc1[C@@H](NC(C)=O)CC2", "%", 5.87),
]

Request: Request the reported growth associated with "Cc1ccc(-c2cc(-c3ccc(C)cc3)nc(NCCNc3ccnc4cc(Cl)ccc34)n2)cc1"
Result: -59.2

Request: Request the reported growth associated with "COc1cc(NCc2ccccc2O)c2ncccc2c1"
Result: 104

Request: Request the reported growth associated with "CCOC(=O)c1sc2nc(-c3cc(OC)c(OC)c(OC)c3)nc(N3CCOCC3)c2c1C"
Result: 44.7

Request: Request the reported growth associated with "Cn1cc(-c2noc(C(=O)c3cn(C)c4ncccc34)n2)c2ccccc21"
Result: 89.4
